Tested on: XF498
Protocol Text: NCI tumour cell line growth inhibition, 48 h
Activity calls are given as the source filed them. No stated cut-off is given here; in the data, active = GI50 up to about 1.1 µM and inactive = higher.
Answer each item with its documented GI50.

Quick request: GI50 for each listed item, please.
1. CCOC(=O)CN(Cc1ccccc1)Cc1c(C(=O)c2ccccc2)c2ccccc2n1C(=O)c1ccccc1
2. CCC1(Cl)C(=O)NC(=O)N(C2CC(O)C(CO)O2)C1N=[N+]=[N-] (configuration not stated)
3. [O-][S+](Cc1cnc2ccccc2c1)c1nc2ccccc2nc1-c1cccs1 (configuration not stated)
4. CC1=CC(=O)CCC2(C)C1CC[C@@H]2OC=O (some centres not stated)
5. CC(=O)O[C@]12CCCCCCC1C1(O)C(O)CCC[C@H]12 (some centres not stated)
6. CC(C)N(C(=O)C1(C)CC1)C(C)C
7. N#CC(C(=O)/C(=N/Nc1nc(S)nn1N)C(C#N)c1ccccc1)c1ccccc1 (configuration not stated)

Key:
["73.1 µM (inactive)", "> 100 µM (inactive)", "4.06 µM (inactive)", "> 100 µM (inactive)", "> 100 µM (inactive)", "> 100 µM (inactive)", "> 100 µM (inactive)"]
